List of Survival values.
Test system: senescent A549 cells
assay overview: Viability of senescent A549 cancer cells (CellTiter-Glo), Example 12
Format: cell-based, human
settings: 30 μM; 0 μM = 100
measured quantity: Survival (%)

>>> quantitative_result("CN(Cc1cnc2nc(N)nc(N)c2n1)c1ccc(C(=O)N[C@@H](CCC(=O)O)C(=O)O)cc1 [LX-2901, Methotrexate]")
92.3
>>> quantitative_result("CCOC(=O)[C@@H](N)CCC(=O)N[C@@H](CSCc1ccccc1)C(=O)N[C@@H](C(=O)OCC)c1ccccc1")
32.5
>>> quantitative_result("C[N+](C)(C)CCO.C[N+](C)(C)CCO.[SH-].[SH-].[S]=[Mo]=[S]")
50.7
>>> quantitative_result("Cc1nc(-c2nc(-c3ccc(OC(F)(F)F)cc3)no2)nn1Cc1cccc(N2CCC(S(C)(=O)=O)CC2)c1")
1.6
